EXPERIMENT NOTES: NCI Yeast Anticancer Drug Screen. Data for the rad50EPP+ strain (AID 151);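 also: 0% = growth of vehicle-treated control cultures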
MEASUREMENT PARAMETERS: S. cerevisiae rad50 mutant strain, at 11.0 µM, active compounds read high
Compounds without any hit were thinned out: in the full panel of roughly 79,000, 15% have a hit.
Reported growth inhibition is given for each of the following molecules.
Reply with just the number (in %).

molecule=CCCCCCCCCCCCOCCOCCOCC(N)=O readout_number=-11
molecule="c1ccc(-c2cc(C3CO3)c3ccccc3n2)cc1 (stereo not given)" readout_number=24
molecule="NC(CS)C(=O)NCCNc1ccc(NCCNC(=O)C(N)CS)c2c1C(=O)c1c(O)ccc(O)c1C2=O (stereo not given)" readout_number=67

Looking up CCCC/C=C1\CCC(CN2CCCC2)C1=O (stereo not given) , I found its growth inhibition recorded as -8

Looking up CCCCCCCSCC1C(=O)C23C(O)C1CCC2C12COC3(O)C(O)C1C(C)(C)CCC2O (stereo not given) , I found its growth inhibition recorded as 32
